- STUDY TARGET: Tyk2 (Homo sapiens)
- Construct: purchased Invitrogen
- Sequence (P29597 whole entry): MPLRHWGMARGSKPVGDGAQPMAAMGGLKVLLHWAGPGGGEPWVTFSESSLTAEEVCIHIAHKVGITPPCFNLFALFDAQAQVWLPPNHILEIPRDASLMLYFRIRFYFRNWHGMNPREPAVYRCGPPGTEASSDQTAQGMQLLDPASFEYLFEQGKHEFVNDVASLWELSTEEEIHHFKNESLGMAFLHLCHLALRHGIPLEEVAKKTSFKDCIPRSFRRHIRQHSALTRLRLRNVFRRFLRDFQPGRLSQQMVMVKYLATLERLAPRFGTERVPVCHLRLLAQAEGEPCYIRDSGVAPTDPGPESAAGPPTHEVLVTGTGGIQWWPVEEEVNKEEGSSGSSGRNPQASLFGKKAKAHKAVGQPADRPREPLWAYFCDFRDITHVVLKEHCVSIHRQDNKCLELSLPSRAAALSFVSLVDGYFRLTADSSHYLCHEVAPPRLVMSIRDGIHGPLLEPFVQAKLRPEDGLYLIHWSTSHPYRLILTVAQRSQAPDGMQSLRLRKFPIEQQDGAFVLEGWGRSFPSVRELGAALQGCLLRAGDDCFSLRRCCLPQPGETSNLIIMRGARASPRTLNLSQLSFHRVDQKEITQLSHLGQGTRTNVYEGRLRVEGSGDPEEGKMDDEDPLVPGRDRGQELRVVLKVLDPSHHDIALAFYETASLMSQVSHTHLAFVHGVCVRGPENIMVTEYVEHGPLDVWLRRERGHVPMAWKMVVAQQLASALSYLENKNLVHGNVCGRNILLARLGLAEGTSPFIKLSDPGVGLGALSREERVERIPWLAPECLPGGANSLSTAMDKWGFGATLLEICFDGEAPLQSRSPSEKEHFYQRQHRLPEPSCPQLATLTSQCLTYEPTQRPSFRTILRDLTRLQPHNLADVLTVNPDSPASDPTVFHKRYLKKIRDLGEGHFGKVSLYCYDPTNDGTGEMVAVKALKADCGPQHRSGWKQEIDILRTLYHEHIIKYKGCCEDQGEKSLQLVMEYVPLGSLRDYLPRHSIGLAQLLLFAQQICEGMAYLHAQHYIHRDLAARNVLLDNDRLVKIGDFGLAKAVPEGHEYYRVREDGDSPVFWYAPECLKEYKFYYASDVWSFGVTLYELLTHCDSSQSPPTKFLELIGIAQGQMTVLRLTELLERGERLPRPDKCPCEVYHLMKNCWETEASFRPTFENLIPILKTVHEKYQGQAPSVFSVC
- EXPERIMENTAL PROTOCOL: Tyk2 enzyme inhibition test (LANCE method)
- Format: biochemical
- STATED CONDITIONS: test compound 1 μM; read-out: Inhibitory rate (%) Tyk2 1 μM
Classification field: enter Condition met for inhibition at 1 µM values not below 90%, Condition not met for values below it.

Before answering, review these 4 worked examples.
C[C@@H]1COCCN1c1ccc(-c2nn(-c3c(F)cccc3F)c3cc[nH]c(=O)c23)cc1 :: Condition met
COC(=O)c1c[nH]c(=O)c2c(-c3csc(-c4noc(=O)[nH]4)c3)cn(C3CCCC3)c12 :: Condition not met
O=c1[nH]ccc2c1c(-c1cccc(CN3CCC(F)(F)C3)c1)nn2-c1c(F)cccc1F :: Condition met
NS(=O)(=O)c1ccc(-c2nn(C3CCCOC3)c3cc[nH]c(=O)c23)cc1 (centres unmarked) :: Condition met

From here, focus on the item given below.
Asked: Quick check: does NC(=O)c1cc(-c2nn(C3CCC(O)(c4ccccc4)CC3)c3cc[nH]c(=O)c23)cs1 (centres unmarked) have inhibition at 1 µM greater than or equal to 90%?
Given back: Condition met

---

- STUDY TARGET: Tyk2 (Homo sapiens)
- Construct: purchased Invitrogen
- EXPERIMENTAL PROTOCOL: Tyk2 enzyme inhibition test (LANCE method)
- Type: biochemical
- STATED CONDITIONS: test compound 1 μM; read-out: Inhibitory rate (%) Tyk2 1 μM
Classification field: enter label 1 for inhibition at 1 µM values not below 90%, label 0 for values below it.

Before answering, review these 5 worked examples.
CNC(=O)c1cc(-c2nn(C3CCCC3)c3cc[nH]c(=O)c23)cs1 [Example 155] :: label 1
CN1CCN(c2ccc(-c3nn(-c4c(F)cccc4F)c4c(Cl)c[nH]c(=O)c34)cc2)C1=O [Example 239] :: label 1
NC(=O)c1cc(F)cc(-c2nn(-c3c(F)cccc3F)c3c(Cl)c[nH]c(=O)c23)c1 [Example 270] :: label 0
CC(C)Cn1cc(-c2cn(C3CCCC3)c3c(C#N)c[nH]c(=O)c23)cn1 [Example 135] :: label 1
O=c1[nH]ccc2c1c(Nc1ccccc1)nn2C1CCCC1 [Example 283] :: label 1

From here, focus on the item given below.
Asked: Quick check: does COC(=O)c1cc(-c2nn(C3CCCC3)c3cc[nH]c(=O)c23)cs1 [Example 12] have inhibition at 1 µM greater than or equal to 90%?
Given back: label 1

---

We begin with a simple list: items and their reported inhibition at 1 µM.
- STUDY TARGET: JAK1 (Homo sapiens)
- Construct: purchased Invitrogen
- Sequence (P23458 whole entry): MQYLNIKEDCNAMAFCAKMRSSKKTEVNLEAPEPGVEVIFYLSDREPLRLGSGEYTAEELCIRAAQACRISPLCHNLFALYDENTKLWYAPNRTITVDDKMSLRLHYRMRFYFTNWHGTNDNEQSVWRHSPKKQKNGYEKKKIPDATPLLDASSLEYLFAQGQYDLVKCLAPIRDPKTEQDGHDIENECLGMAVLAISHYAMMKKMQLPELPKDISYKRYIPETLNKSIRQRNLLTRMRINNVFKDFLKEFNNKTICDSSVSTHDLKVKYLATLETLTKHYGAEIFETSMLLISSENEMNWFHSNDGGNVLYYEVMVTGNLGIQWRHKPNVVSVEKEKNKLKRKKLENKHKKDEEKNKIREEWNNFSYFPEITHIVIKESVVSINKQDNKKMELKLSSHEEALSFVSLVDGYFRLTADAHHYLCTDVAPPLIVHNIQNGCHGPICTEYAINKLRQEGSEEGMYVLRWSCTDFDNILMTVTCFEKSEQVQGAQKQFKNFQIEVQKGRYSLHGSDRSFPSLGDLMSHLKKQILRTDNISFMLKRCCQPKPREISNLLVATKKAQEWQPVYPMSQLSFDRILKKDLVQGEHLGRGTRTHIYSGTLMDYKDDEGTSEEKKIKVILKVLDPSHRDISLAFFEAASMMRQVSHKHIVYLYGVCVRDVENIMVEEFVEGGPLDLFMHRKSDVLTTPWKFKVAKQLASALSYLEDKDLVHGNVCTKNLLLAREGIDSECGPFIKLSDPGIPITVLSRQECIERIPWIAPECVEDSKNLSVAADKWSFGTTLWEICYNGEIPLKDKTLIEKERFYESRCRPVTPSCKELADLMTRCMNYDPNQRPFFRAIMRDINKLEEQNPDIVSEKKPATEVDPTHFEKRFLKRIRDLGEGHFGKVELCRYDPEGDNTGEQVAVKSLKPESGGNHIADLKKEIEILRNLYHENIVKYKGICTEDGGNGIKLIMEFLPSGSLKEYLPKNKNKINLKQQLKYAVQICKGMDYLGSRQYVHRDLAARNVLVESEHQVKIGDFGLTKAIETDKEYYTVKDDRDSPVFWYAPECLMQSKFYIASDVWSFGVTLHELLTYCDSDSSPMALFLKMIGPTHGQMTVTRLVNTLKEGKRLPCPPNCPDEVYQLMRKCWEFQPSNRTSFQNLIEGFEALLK
- EXPERIMENTAL PROTOCOL: JAK1 enzyme inhibition test (LANCE method)
- Assay type: biochemical
- STATED CONDITIONS: test compound 1 μM; read-out: Inhibitory rate (%) JAK1 1 μM
Use % as the unit, but write only the number.

CC(=O)N1CCC(c2ccc(-c3nn(-c4c(F)cccc4F)c4cc[nH]c(=O)c34)cc2)C(F)(F)C1 (centres unmarked) :: 99
NC(=O)c1cccc(-c2nn(-c3c(F)cccc3F)c3cc[nH]c(=O)c23)c1 :: 93

Turning to the following compound.
The recorded inhibition at 1 µM with JAK1 (Homo sapiens) for O=c1[nH]ccc2c1c(-c1ccc(N3CCOCC3)cc1)nn2C1CCCCC1(F)F (centres unmarked) was 96
